EXPERIMENTAL DETAILS: yeast display, Sf9 membrane polyspecificity reagent, FACS + sequencing; frameworks hold sequencing errors
READOUT LABEL: polyreactivity (PSR sort gate)

QVQLVESAVGLVQAGGSLRLSCAASGGIIAYNAMGWYRQAPGKERELVAAISSSGGRTYYADSVKGRFTISRDNAKNTVYLQMNSLKPEDTAVYYCAADITFRYYYWGQGTQVTVSS
high polyreactivity
QDQLVESGGGLVQAGGSLRLSCAASGSTFGYARGWYRQAPGKERELVAAITSTGGSTYYADSVKGRFTISRDNAKNTVYLQMNSLKPEDTAVYYCAAQVGRVYVVYPVYKYGYWGQGTQVTVSS
high polyreactivity

Entry source: the nanobody polyreactivity screen of Harvey et al. (2022)
